target_or_system: T1, KIAA0735 peptide on HLA-A*02:01 (human)
T1 peptide: LISGIGIGGA
measurement_notes: cytokine release

binder	binding result
SIG35α / TRBV27 Cl.1599 (TCR) alpha TRAV12-2 J35 CDR3: CAVSIGFGNVL beta TRBV27 TRBJ1-1 CDR3: CASSFLGAMAEAFF	recognises
SIG35α / TRBV27 Cl.1606 (TCR) alpha TRAV12-2 J35 CDR3: CAVSIGFGNVL beta TRBV27 TRBJ2-7 CDR3: CASSLLGSYEQYF	recognises
